Entry source: paper PMC6327041

Biological target: T1, GST-PHD1 (S287-K347) of KDM5A (human, UniProt P29375 287-347)
T1 chain: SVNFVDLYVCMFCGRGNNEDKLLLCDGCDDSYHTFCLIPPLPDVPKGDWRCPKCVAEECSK
Experiment: FP; H3R2me2s (symmetric dimethyl)
Where no end group is shown, it is not given here.

[
  {
    "binder": "ARTKQTARKS (also: methylated Arg2, degree of methylation not given here) [H3 10mer peptide methylated at R2]",
    "Kd / µM": 5.31
  }
]
